system: NCI-H460; assay: NCI in vitro cancer screen, Non-Small Cell Lung Cancer; assay type: cell-based, human; details: Homo sapiens, NCI-H460; read-out: LC50 (the source's name)
test_readout: CC50 (µM)

INSERT INTO results (structure_as_smiles, result_qualifier, numeric_value) VALUES
  ('COc1cc(/C=C/c2cc(O)cc(OC)c2CC=C(C)C)ccc1O', '=', 42),
  ('CC(C)=CCc1c(O)cc(/C=C/c2ccc(O)c(O)c2)c(CC=C(C)C)c1O', '=', 6.33),
  ('COc1cc(/C=C/c2cc(O)cc(OCC=C(C)C)c2)ccc1O', '=', 58.7),
  ('CC(C)=CCc1c(O)cc(/C=C/c2ccc(O)cc2)c(CC=C(C)C)c1O', '=', 8.06),
  ('COc1cc(O)cc(/C=C/c2ccc(O)c(O)c2)c1CC=C(C)C', '=', 75.7),
  ('COc1cc(/C=C/c2cc(O)c(CC=C(C)C)c(O)c2)ccc1O', '>', 100),
  ('CC(C)=CCOc1cc(O)cc(/C=C/c2ccc(O)c(O)c2)c1', '>', 100);

---

// values below are reported log10 GI50
tested on: SNB-19; test: NCI in vitro cancer screen, CNS Cancer; type: cell-based, human; settings: Homo sapiens, SNB-19
test_readout: log10 GI50 (log10 of the value in µM)

INSERT INTO results (structure_as_smiles, numeric_value) VALUES
  ('COc1cc(/C=C/c2cc(O)cc(OCC=C(C)C)c2)ccc1O', 0.70),
  ('COc1cc(/C=C/c2cc(O)c(CC=C(C)C)c(O)c2)ccc1O', 0.90),
  ('COc1cc(/C=C/c2cc(O)cc(OC)c2CC=C(C)C)ccc1O', -0.77),
  ('CC(C)=CCc1c(O)cc(/C=C/c2ccc(O)c(O)c2)c(CC=C(C)C)c1O', 0.45),
  ('CC(C)=CCc1c(O)cc(/C=C/c2ccc(O)cc2)c(CC=C(C)C)c1O', 0.80),
  ('CC(C)=CCOc1cc(O)cc(/C=C/c2ccc(O)c(O)c2)c1', 1.02),
  ('COc1cc(O)cc(/C=C/c2ccc(O)c(O)c2)c1CC=C(C)C', -0.26);

---

system: OVCAR-8; assay: NCI in vitro cancer screen, Ovarian Cancer; assay type: cell-based, human; settings: Homo sapiens, OVCAR-8
test_readout: log10(GI50) (log10 of the value in µM)

INSERT INTO measurements (structure_as_smiles, target_or_system, numeric_value) VALUES
  ('CC(C)=CCOc1cc(O)cc(/C=C/c2ccc(O)c(O)c2)c1', 'OVCAR-8', 0.69),
  ('CC(C)=CCc1c(O)cc(/C=C/c2ccc(O)cc2)c(CC=C(C)C)c1O', 'OVCAR-8', 0.47),
  ('COc1cc(/C=C/c2cc(O)c(CC=C(C)C)c(O)c2)ccc1O', 'OVCAR-8', 0.74),
  ('COc1cc(/C=C/c2cc(O)cc(OC)c2CC=C(C)C)ccc1O', 'OVCAR-8', -1.10),
  ('CC(C)=CCc1c(O)cc(/C=C/c2ccc(O)c(O)c2)c(CC=C(C)C)c1O', 'OVCAR-8', 0.23),
  ('COc1cc(/C=C/c2cc(O)cc(OCC=C(C)C)c2)ccc1O', 'OVCAR-8', 0.45),
  ('COc1cc(O)cc(/C=C/c2ccc(O)c(O)c2)c1CC=C(C)C', 'OVCAR-8', -0.30);

---

tested on: SK-MEL-5; test: NCI in vitro cancer screen, Melanoma; type: cell-based, human; settings: Homo sapiens, SK-MEL-5; read-out: LC50 (the source's name)
test_readout: CC50

INSERT INTO results (structure_as_smiles, target_or_system, result) VALUES
  ('COc1cc(/C=C/c2cc(O)c(CC=C(C)C)c(O)c2)ccc1O', 'SK-MEL-5', '29.2 µM'),
  ('COc1cc(/C=C/c2cc(O)cc(OC)c2CC=C(C)C)ccc1O', 'SK-MEL-5', '5.99 µM'),
  ('CC(C)=CCc1c(O)cc(/C=C/c2ccc(O)c(O)c2)c(CC=C(C)C)c1O', 'SK-MEL-5', '7.54 µM'),
  ('COc1cc(/C=C/c2cc(O)cc(OCC=C(C)C)c2)ccc1O', 'SK-MEL-5', '34.3 µM'),
  ('CC(C)=CCOc1cc(O)cc(/C=C/c2ccc(O)c(O)c2)c1', 'SK-MEL-5', '30 µM'),
  ('COc1cc(O)cc(/C=C/c2ccc(O)c(O)c2)c1CC=C(C)C', 'SK-MEL-5', '> 100 µM'),
  ('CC(C)=CCc1c(O)cc(/C=C/c2ccc(O)cc2)c(CC=C(C)C)c1O', 'SK-MEL-5', '22.1 µM');

---

test system: LOX IMVI; assay: NCI in vitro cancer screen, Melanoma; assay type: cell-based, human
Parameter: log10 of TGI. Scope: all listed entries.
test_readout: log10 of TGI (log10 of the value in µM)

INSERT INTO assay_data (structure_as_smiles, target_or_system, numeric_value) VALUES
  ('CC(C)=CCOc1cc(O)cc(/C=C/c2ccc(O)c(O)c2)c1', 'LOX IMVI', 1.29),
  ('COc1cc(/C=C/c2cc(O)c(CC=C(C)C)c(O)c2)ccc1O', 'LOX IMVI', 1.31),
  ('CC(C)=CCc1c(O)cc(/C=C/c2ccc(O)c(O)c2)c(CC=C(C)C)c1O', 'LOX IMVI', 0.53),
  ('CC(C)=CCc1c(O)cc(/C=C/c2ccc(O)cc2)c(CC=C(C)C)c1O', 'LOX IMVI', 0.53),
  ('COc1cc(O)cc(/C=C/c2ccc(O)c(O)c2)c1CC=C(C)C', 'LOX IMVI', 1.77),
  ('COc1cc(/C=C/c2cc(O)cc(OC)c2CC=C(C)C)ccc1O', 'LOX IMVI', 1.21),
  ('COc1cc(/C=C/c2cc(O)cc(OCC=C(C)C)c2)ccc1O', 'LOX IMVI', 1.29);

---

List of log10(GI50) values.
tested on: NCI-H460; assay: NCI in vitro cancer screen, Non-Small Cell Lung Cancer; type: cell-based, human; conditions: Homo sapiens, NCI-H460
test_readout: log10(GI50) (log10 of the value in µM)

INSERT INTO measurements (compound, numeric_value) VALUES
  ('COc1cc(/C=C/c2cc(O)cc(OC)c2CC=C(C)C)ccc1O [USYDS1]', -0.64),
  ('COc1cc(O)cc(/C=C/c2ccc(O)c(O)c2)c1CC=C(C)C [USYDS9]', -0.33),
  ('COc1cc(/C=C/c2cc(O)cc(OCC=C(C)C)c2)ccc1O [USYDS2]', 0.39),
  ('COc1cc(/C=C/c2cc(O)c(CC=C(C)C)c(O)c2)ccc1O [USYDS13]', 0.49),
  ('CC(C)=CCc1c(O)cc(/C=C/c2ccc(O)c(O)c2)c(CC=C(C)C)c1O [USYDS7]', 0.21),
  ('CC(C)=CCc1c(O)cc(/C=C/c2ccc(O)cc2)c(CC=C(C)C)c1O [USYDS6]', 0.28),
  ('CC(C)=CCOc1cc(O)cc(/C=C/c2ccc(O)c(O)c2)c1 [USYDS4]', 0.56);

---

system: SN12C; assay: NCI in vitro cancer screen, Renal Cancer; assay type: cell-based, human; conditions: Homo sapiens, read-out: LC50 (the source's name)
# CC50 per record follows
test_readout: CC50

INSERT INTO measurements (structure_as_smiles, test_readout, result) VALUES
  ('COc1cc(/C=C/c2cc(O)cc(OC)c2CC=C(C)C)ccc1O', 'CC50', '54.2 µM'),
  ('COc1cc(O)cc(/C=C/c2ccc(O)c(O)c2)c1CC=C(C)C', 'CC50', '> 100 µM'),
  ('COc1cc(/C=C/c2cc(O)cc(OCC=C(C)C)c2)ccc1O', 'CC50', '60.2 µM'),
  ('CC(C)=CCc1c(O)cc(/C=C/c2ccc(O)cc2)c(CC=C(C)C)c1O', 'CC50', '30.8 µM'),
  ('COc1cc(/C=C/c2cc(O)c(CC=C(C)C)c(O)c2)ccc1O', 'CC50', '> 100 µM'),
  ('CC(C)=CCc1c(O)cc(/C=C/c2ccc(O)c(O)c2)c(CC=C(C)C)c1O', 'CC50', '6.03 µM'),
  ('CC(C)=CCOc1cc(O)cc(/C=C/c2ccc(O)c(O)c2)c1', 'CC50', '74.1 µM');

---

tested on: SK-MEL-2; experiment: NCI in vitro cancer screen, Melanoma; assay type: cell-based, human; conditions: Homo sapiens, SK-MEL-2
test_readout: GI50 (nM)

INSERT INTO assay_data (structure_as_smiles, test_readout, numeric_value) VALUES
  ('COc1cc(/C=C/c2cc(O)cc(OC)c2CC=C(C)C)ccc1O', 'GI50', 320),
  ('COc1cc(O)cc(/C=C/c2ccc(O)c(O)c2)c1CC=C(C)C', 'GI50', 2170),
  ('COc1cc(/C=C/c2cc(O)c(CC=C(C)C)c(O)c2)ccc1O', 'GI50', 3090),
  ('CC(C)=CCc1c(O)cc(/C=C/c2ccc(O)c(O)c2)c(CC=C(C)C)c1O', 'GI50', 3200),
  ('CC(C)=CCc1c(O)cc(/C=C/c2ccc(O)cc2)c(CC=C(C)C)c1O', 'GI50', 13100),
  ('CC(C)=CCOc1cc(O)cc(/C=C/c2ccc(O)c(O)c2)c1', 'GI50', 2180),
  ('COc1cc(/C=C/c2cc(O)cc(OCC=C(C)C)c2)ccc1O', 'GI50', 1250);
